Reference for the values: patent US11396501B2

Quick reference: IC50 of the listed items.
biological target: CXCR4 (Homo sapiens, UniProt P61073); experiment: HPB-ALL CXCR4 competitive binding assay (12G5 binding assay); set-up: HPB-ALL cells were maintained in RPMI-1640 (Gibico) supplemented with 10% FBS (Hyclone); endogenous in cells; host or cells: HPB-ALL cells; settings: HPB-ALL cells; competition with APC-conjugated anti-human CXCR4 clone 12G5 at its EC80; 4° C. for 3 h; FACS
Sequence (P61073 whole entry): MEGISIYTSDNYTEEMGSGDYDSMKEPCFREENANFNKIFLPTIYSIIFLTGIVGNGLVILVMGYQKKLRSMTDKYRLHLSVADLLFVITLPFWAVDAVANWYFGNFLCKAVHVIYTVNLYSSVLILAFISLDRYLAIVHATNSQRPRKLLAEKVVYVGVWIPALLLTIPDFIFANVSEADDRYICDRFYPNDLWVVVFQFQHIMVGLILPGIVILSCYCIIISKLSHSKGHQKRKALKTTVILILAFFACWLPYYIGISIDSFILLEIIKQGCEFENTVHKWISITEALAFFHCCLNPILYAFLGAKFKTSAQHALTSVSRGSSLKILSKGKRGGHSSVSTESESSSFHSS
Recorded metric: IC50 (nM)

Molecule	System under test	Recorded metric	Observed result
Cc1nc(CN(C)c2cc(F)c(F)c3cccnc23)cc(N2CCN(C)CC2)n1	CXCR4 (Homo sapiens, UniProt P61073)	IC50	675
Cc1nc(CN(C)[C@H]2CCCc3cccnc32)cc(N2CCC(N3CCOCC3)CC2)n1	CXCR4 (Homo sapiens, UniProt P61073)	IC50	146
CC(C)Oc1nc(CN(C)C2CCCc3cccnc32)cc(N2CCN(C)CC2)n1 (centres unmarked)	CXCR4 (Homo sapiens, UniProt P61073)	IC50	77
CN(Cc1cc(N2CCN(CCO)CC2)ncn1)C1CCCc2cccnc21 (centres unmarked)	CXCR4 (Homo sapiens, UniProt P61073)	IC50	113
CN1CCN(c2cc(CN(C)C3CCCc4cccnc43)nc(-c3ccccc3)n2)CC1 (centres unmarked)	CXCR4 (Homo sapiens, UniProt P61073)	IC50	2690
Cc1nc(CN(C)[C@H]2CCCc3cccnc32)cc(N2CCN(C)C[C@H]2C)n1	CXCR4 (Homo sapiens, UniProt P61073)	IC50	29
CN(Cc1cc(N2CCN(CC3CC3)CC2)ncn1)C1CCCc2cccnc21 (centres unmarked)	CXCR4 (Homo sapiens, UniProt P61073)	IC50	464
Cc1nc(CN(C)[C@H]2CCCc3cccnc32)cc(N2CCN(C3COC3)CC2)n1	CXCR4 (Homo sapiens, UniProt P61073)	IC50	123
